# SYSTEM NAME: T1, human G-protein-coupled receptor family C group 5 member D (GPRC5D) (human, UniProt Q9NZD1 1-345)
# T1 construct: whole, on cells; also called human GPRC5D protein
# T1 sequence (Q9NZD1 whole entry): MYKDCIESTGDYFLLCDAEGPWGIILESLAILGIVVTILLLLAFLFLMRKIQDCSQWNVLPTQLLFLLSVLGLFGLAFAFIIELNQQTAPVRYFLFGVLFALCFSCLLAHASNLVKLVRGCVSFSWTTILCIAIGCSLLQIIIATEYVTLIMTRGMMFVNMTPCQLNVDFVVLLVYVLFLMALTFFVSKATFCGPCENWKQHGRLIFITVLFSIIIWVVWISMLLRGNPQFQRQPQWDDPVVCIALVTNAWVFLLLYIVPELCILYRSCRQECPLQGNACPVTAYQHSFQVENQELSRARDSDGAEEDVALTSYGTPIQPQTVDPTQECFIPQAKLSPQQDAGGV
# TEST METHOD NOTES: FACS, CHO-K1/GPRC5D
QUANTITY NAME: Bottom
Just the number, please, no unit after it.

binder="37-H2L1 (antibody, V domains shown, humanized 37B9C4, VH v2 x VL v1) VH: EVQLVESGGGLVQPGGSLRLSCAASGFTFSDYWMNWVRQSPGKGLEWVAEIRLKSNNYATHYAESVKGRFTISRDNAKSSLYLQMNSLRAEDTAVYYCTRPLLWFRRYYAMDYWGQGTLVTVSS VL: DIQMTQSPSSLSASVGDRVTITCSASQGISNYLNWYQQKPGKAPKLLIYYTSSLHSGVPSRFSGSGSGTDFTLTISSLQPEDFATYYCQQYSKLPFTFGQGTKLEIK" quantity_name=Bottom measurement=9180

Proceeding to the next binder to report its Bottom.
Value of Bottom reported for the binder 37-H1L3 (antibody, V domains shown, humanized 37B9C4, VH v1 x VL v3) VH: EVQLVESGGGLVQPGGSLRLSCAASGFTFSDYWMNWVRQAPGKGLEWVAEIRLKSNNYATHYAESVKGRFTISRDNAKNSLYLQMNSLRAEDTAVYYCARPLLWFRRYYAMDYWGQGTLVTVSS VL: DIQMTQSPSSLSASVGDRITITCSASQGISNYLNWYQQKPGKTVKLLIYYTSSLHSGVPSRFSGSGSGTDYTLTISSLQPEDFATYYCQQYSKLPFTFGSGTKLEIK is 10400
